Below is a list of entries, each paired with its recorded Kd value.
biological target: human TYK2 (JH2domain-pseudokinase) (Homo sapiens (Human)); experiment: TYK2 JH2 Domain Binding Assay (KINOMEscan)
Sequence (P29597 556-888): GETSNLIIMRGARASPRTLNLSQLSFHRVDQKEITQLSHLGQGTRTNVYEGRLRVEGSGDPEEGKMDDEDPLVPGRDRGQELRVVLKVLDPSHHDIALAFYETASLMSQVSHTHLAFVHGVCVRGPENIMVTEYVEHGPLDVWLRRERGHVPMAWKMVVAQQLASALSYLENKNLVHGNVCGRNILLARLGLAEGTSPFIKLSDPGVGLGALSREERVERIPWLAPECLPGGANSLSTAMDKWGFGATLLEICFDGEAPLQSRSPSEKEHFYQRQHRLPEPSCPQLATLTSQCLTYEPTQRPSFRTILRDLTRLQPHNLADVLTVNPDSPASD

Examples with their reported Kd follow.
COMPOUND	TESTED_ON	REPORTED_PROPERTY	VAL
CNc1cc(Nc2cccc(N3CC(O)C3)n2)nc2c(C(=O)N[C@@H]3C[C@@H]3F)cnn12 [I-757]	human TYK2 (JH2domain-pseudokinase) (Homo sapiens (Human))	Kd	< 200 pM
CNc1cc(-c2cn(CCN3CCN(C)CC3)c3ncccc23)nc2c(C(=O)N[C@H]3CC[C@@H]3OC)cnn12 (stereo in doubt) [I-885]	human TYK2 (JH2domain-pseudokinase) (Homo sapiens (Human))	Kd	< 200 pM
CNc1cc(Nc2cccn([C@H]3CCCN(CCF)C3)c2=O)nc2c(C(=O)N[C@@H]3C[C@@H]3F)cnn12 [I-900]	human TYK2 (JH2domain-pseudokinase) (Homo sapiens (Human))	Kd	< 200 pM
CNc1cc(Nc2cccn([C@H]3CC[C@@H]3OC)c2=O)nc2c(C(=O)NC3CC3)cnn12 [I-1019]	human TYK2 (JH2domain-pseudokinase) (Homo sapiens (Human))	Kd	200 to 1000 pM
CNc1cc(Nc2cccnc2OC)nc2c(C(=O)N[C@@H]3CCC[C@@H](O)C3)cnn12 (stereo in doubt) [I-459]	human TYK2 (JH2domain-pseudokinase) (Homo sapiens (Human))	Kd	< 200 pM
CNc1cc(Nc2cccnc2OC)nc2c(C(=O)NCC3(CO)CC3)cnn12 [I-425]	human TYK2 (JH2domain-pseudokinase) (Homo sapiens (Human))	Kd	< 200 pM
CNc1cc(-c2cn(C3CCOCC3)c3ncccc23)nc2c(C(=O)N[C@@H]3COC[C@@H]3O)cnn12 [I-1307]	human TYK2 (JH2domain-pseudokinase) (Homo sapiens (Human))	Kd	< 200 pM
CNc1cc(Nc2cccn([C@@H]3CCOC[C@@H]3OC)c2=O)nc2c(C(=O)NC3CC3)cnn12 [I-594]	human TYK2 (JH2domain-pseudokinase) (Homo sapiens (Human))	Kd	200 to 1000 pM

Prompt: Form field: reported Kd of CNc1cc(Nc2cccn(CCOC)c2=O)nc2c(C(=O)N[C@H]3C[C@H]3F)cnn12 [I-268]
Completion: < 200 pM

###

biological target: human TYK2 (JH2domain-pseudokinase) (Homo sapiens (Human)); assay: TYK2 JH2 Domain Binding Assay (KINOMEscan)
Below is a list of entries, each paired with its recorded Kd value.

Prompt: Form field: reported Kd of CNc1cc(Nc2cc(Cl)cn(C3CCN(C)CC3)c2=O)nc2c(C(=O)N[C@@H]3C[C@@H]3F)cnn12
Completion: < 0.2 nM

###

molecular target: human TYK2 (JH2domain-pseudokinase) (Homo sapiens (Human)); test: TYK2 JH2 Domain Binding Assay (KINOMEscan)
REPORTED_PROPERTY: Kd

Examples with their reported Kd follow.
COMPOUND	Kd
CNC(=O)c1nscc1Nc1cc(NC)n2ncc(C(=O)NC3CC3)c2n1 [I-913]	0.2 to 1 nM
CNc1cc(Nc2cccn3ccnc23)nc2c(C(=O)N[C@H]3COC[C@H]3O)cnn12 [I-1313]	> 10 nM
CNc1cc(Nc2cccn(-c3cnn(C)c3F)c2=O)nc2c(C(=O)N[C@@H]3CC[C@H]3OC)cnn12 [I-1368]	< 0.2 nM

--- query ---
Prompt: Form field: reported Kd of CNc1cc(Nc2cccn([C@@H]3CCCC[C@@H]3O)c2=O)nc2c(C(=O)N[C@@H]3C[C@@H]3F)cnn12 [I-889]
Completion: 1 to 10 nM
